- study_target: T1, human GLP-2 receptor (hGLP2-R) (human, UniProt O95838)
- T1 sequence: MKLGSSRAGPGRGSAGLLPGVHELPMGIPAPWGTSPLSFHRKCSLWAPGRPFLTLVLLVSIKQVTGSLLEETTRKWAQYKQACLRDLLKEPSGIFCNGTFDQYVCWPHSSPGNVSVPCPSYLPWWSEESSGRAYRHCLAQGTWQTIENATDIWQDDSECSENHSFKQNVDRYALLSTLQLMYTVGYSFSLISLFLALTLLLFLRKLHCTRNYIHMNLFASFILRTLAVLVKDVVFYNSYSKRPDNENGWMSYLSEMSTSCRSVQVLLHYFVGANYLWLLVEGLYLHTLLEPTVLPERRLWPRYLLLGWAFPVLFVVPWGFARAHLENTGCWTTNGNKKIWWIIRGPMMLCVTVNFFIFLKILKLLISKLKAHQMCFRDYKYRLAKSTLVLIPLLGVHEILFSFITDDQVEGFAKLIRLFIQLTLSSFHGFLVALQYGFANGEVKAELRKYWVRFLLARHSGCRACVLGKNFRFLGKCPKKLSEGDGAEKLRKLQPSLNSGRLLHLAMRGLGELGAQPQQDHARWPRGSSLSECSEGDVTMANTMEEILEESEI
- experimental_protocol: cell-based or functional assay
Numbered stars: 1 amine (or outer) side, 2 acyl side, 3 side chain; on linkers, the order of the positions; unused ones are H or OH. Square brackets hold non-standard residues; d marks the D form. Side chains are listed from the residue outwards. * marks the point of attachment. C20 diacid = O=C(O)CCCCCCCCCCCCCCCCCCC(=O)*; C18 diacid = O=C(O)CCCCCCCCCCCCCCCCC(=O)*; γGlu = O=C(O)[C@H](CCC(=O)[*:2])N[*:1]; KEK = Lys-Glu-Lys peptide sequence; AEEA = NCCOCCOCC(=O)O; Aib = CC(C)(N)C(=O)O
Hi! Could you tag entries with EC50 GLP-2 (nM), cAMP AlphaScreen below 0.2 nM as MET, and those at or above as NOT MET? Much appreciated.

| binder | class_name |
| --- | --- |
| H-H[Aib]EGTFTSELATILDK([AEEA-KEK-γGlu-C20 diacid])QAARDFIAWLIEHKITD-OH [Compound 56] | MET |
| H-H[Aib]EGSFTSEK([AEEA-AEEA-KEK-γGlu-C20 diacid])ATILDEQAARDFIAWLIEHKITD-OH [Compound 55] | NOT MET |
| H-H[Aib]EGSFTSELATILDEQAAK([AEEA-AEEA-KEK-γGlu-C20 diacid])DFIAWLIEHKITD-OH [Compound 66] | MET |
| H-H[Aib]EGTFTSEK([AEEA-KEK-γGlu-C20 diacid])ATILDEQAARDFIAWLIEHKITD-OH [Compound 54] | NOT MET |
| H-H[Aib]EGSFTSELATILDK([AEEA-AEEA-AEEA-iso‑Lys-C20 diacid])QAARDFIAWLIQQKITD-OH [Compound 35] | NOT MET |
| H-H[Aib]EGTFTSELATILDK([AEEA-KEK-γGlu-C20 diacid])QAARDFIAWLIQHKITD-OH [Compound 52] | MET |
| H-H[Aib]EGTFSSELATILDK([AEEA-KEK-γGlu-C18 diacid])QAARDFIAWLIQHKITD-OH [Compound 47] | MET |
| H-H[Aib]EGSFTSELATILDAK([AEEA-KEK-γGlu-C20 diacid])AARDFIAWLIEHKITD-OH [Compound 62] | MET |
| H-H[Aib]EGSFTSELATILDK([AEEA-KEK-γGlu-C20 diacid])QAARDFIAWLIAHKITD-OH [Compound 58] | MET |
| H-H[Aib]EGSFTSEK([AEEA-KEK-γGlu-C20 diacid])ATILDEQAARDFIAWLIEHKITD-OH [Compound 53] | NOT MET |

Where do the numbers come from? From patent US20250073311A1.
